Tested on: cells (nuclei count)
Settings: 50 μM; toxicity data; 100=DMSO control
endpointLabel: Relative cell count to DMSO controls, Average 50 μM
Answer as a number with no unit attached.

# count of solved cases: 2
{"compound": "CCCCCCCCNC(=O)C1=C(C)NC(=O)NC1c1ccc(OC)c(OC)c1 (stereo not drawn) [SILCS65]", "dataValue": 75.91}
{"compound": "Cc1ccc(CN(CCN(C)C)Cc2cc(C#CCO)cs2)s1 [SILCS1]", "dataValue": 84.14}

Query string: Which Relative cell count to DMSO controls, Average 50 μM is listed for CCN(CC)CCN(Cc1cccs1)C(=O)c1cccs1 [SILCS34] ?
Result string: 67.85

Query string: And the next one, Cc1cc(CN(CCN(C)C)Cc2ccco2)sc1Br [SILCS15] ?
Result string: 65.19

Query string: And the next one, Cc1cc(CN(CCN(C)C)Cc2ccsc2)oc1C [SILCS27] ?
Result string: 86.33

Query string: And the next one, COc1ccc(-c2[nH]ncc2C(=O)NC2CCCCCC2)cc1OC [SILCS60] ?
Result string: 85.19

Query string: And the next one, CCN(CC)CCN(Cc1ccccc1)Cc1ccc(C)o1 [SILCS23] ?
Result string: 92.88

Query string: And the next one, COc1ccc(CNCCc2ccccc2F)c(OCC(O)CN2CCOCC2)c1 (stereo not drawn) [SILCS49] ?
Result string: 98.89

Query string: And the next one, COc1ccc(C2NC(=O)NC(C)=C2C(=O)NCc2ccccc2)cc1OC (stereo not drawn) [SILCS48] ?
Result string: 77.81

Query string: And the next one, COc1ccc(CNCCc2ccccc2F)c(OCC(O)CN2CCN(C)CC2)c1 (stereo not drawn) [SILCS46] ?
Result string: 107.72

Query string: And the next one, COc1ccc(C2NC(=O)NC(C)=C2C(=O)NC2CCCCCC2)cc1OC (stereo not drawn) [SILCS59] ?
Result string: 86.44

Query string: And the next one, CCN(CC)CCN(Cc1ccncc1)C(=O)c1cccs1 [SILCS38] ?
Result string: 105.21

Query string: And the next one, CC1=C(C(=O)NCC2CCC2)C(c2cccs2)NC(=O)N1 (stereo not drawn) [SILCS62] ?
Result string: 98.08

Query string: And the next one, CC1=C(C(=O)NCc2ccccc2)C(c2scc3c2OCCO3)NC(=O)N1 (stereo not drawn) [SILCS66] ?
Result string: 84.65

Query string: And the next one, Cc1ccc(CN(CCN(C)C)Cc2ccc(CO)o2)s1 [SILCS13] ?
Result string: 78.61

Query string: And the next one, CN1CCN(CC(O)COc2cccc(N3CCCCC3)c2CNCCc2ccccc2F)CC1 (stereo not drawn) [SILCS10] ?
Result string: 84.08

Query string: And the next one, CC1=C(C(=O)NCC2CCCCC2)C(c2cccs2)NC(=O)N1 (stereo not drawn) [SILCS70] ?
Result string: 79.59

Query string: And the next one, CN(C)CCN(Cc1ccsc1)Cc1ccco1 [SILCS12] ?
Result string: 66.97

* * *

System: cells (nuclei count)
Settings: Average of Exp 1-3, n 9, 25 uM
Below is a list of entries, each paired with its recorded Toxicity Data, Average, Mean value.
Output spec: scalar in %, unitless text.

{"compound": "COc1ccc(CNCCc2ccccc2F)c(OCC(O)CN2CCN(C)CC2)c1 (racemic) [UMB18G]", "Toxicity Data, Average, Mean (%)": 112.46}
{"compound": "CCN(CC)CCN(Cc1ccccc1)Cc1ccc(C)o1 [SILCS23]", "Toxicity Data, Average, Mean (%)": 112.58}
{"compound": "Cc1cc(CN(CCN(C)C)Cc2ccsc2)oc1C [SILCS27]", "Toxicity Data, Average, Mean (%)": 103.23}
{"compound": "CCOc1cccc(CNCCc2ccccc2F)c1OCC(O)CN1CCN(C)CC1 (stereo not shown) [SILCS3]", "Toxicity Data, Average, Mean (%)": 117.43}
{"compound": "CCN(CC)CCN(Cc1ccc(C)o1)Cc1cccs1 [SILCS24]", "Toxicity Data, Average, Mean (%)": 96.21}

Query string: Which Toxicity Data, Average, Mean is listed for OC(COc1c(CNCCc2ccccc2F)cccc1N1CCNCC1)CN1CCCC1 (stereo not shown) [SILCS22] ?
Result string: 131.85

Query string: And the next one, Cc1ccc(CN(CCN(C)C)Cc2cc(C#CCO)cs2)s1 [SILCS1] ?
Result string: 116.28
